tgt: RORγt (Homo sapiens)
experiment_description: Cofactor recruitment test (Alpha Screen, biotinylated SRC-1 peptide)
Assay type: biochemical
experimental_parameters: test compound 1 μM, RORγt and biotinylated SRC-1 peptide, read-out: signal value inhibitory rate
readout_type: inhibition at 1 µM (%)
Numbers only, in %.

| compound | inhibition at 1 µM [%] |
| --- | --- |
| CN(Cc1ccncc1)C(=O)Cc1csc(-c2cnn(C(C)(C)C)c2-c2ccc(F)cc2)n1 [Example 18] | 102 |
| COc1ccc(-c2c(-c3nc(CC(=O)NCC4CCOCC4)cs3)cnn2C(C)(C)C)cc1 [Example 39] | 101 |
| CC(C)(C)n1ncc(-c2nc(CC(=O)NCC3CCOCC3)cs2)c1-c1ccccc1 [Example 41] | 101 |

With those in mind, consider the next compound.
What inhibition at 1 µM appears in the records for this compound with RORγt (Homo sapiens)? CCCN(Cc1ccccc1)C(=O)Cc1csc(-c2cnn(C(C)(C)C)c2-c2ccc(F)cc2)n1 [Example 97]
98.8

----------
Exercise: for every item that follows, state its recorded inhibition at 1 µM.
tgt: RORγt (Homo sapiens, UniProt P51449)
Sequence (P51449 1-497 isoform P51449-2, species assumed): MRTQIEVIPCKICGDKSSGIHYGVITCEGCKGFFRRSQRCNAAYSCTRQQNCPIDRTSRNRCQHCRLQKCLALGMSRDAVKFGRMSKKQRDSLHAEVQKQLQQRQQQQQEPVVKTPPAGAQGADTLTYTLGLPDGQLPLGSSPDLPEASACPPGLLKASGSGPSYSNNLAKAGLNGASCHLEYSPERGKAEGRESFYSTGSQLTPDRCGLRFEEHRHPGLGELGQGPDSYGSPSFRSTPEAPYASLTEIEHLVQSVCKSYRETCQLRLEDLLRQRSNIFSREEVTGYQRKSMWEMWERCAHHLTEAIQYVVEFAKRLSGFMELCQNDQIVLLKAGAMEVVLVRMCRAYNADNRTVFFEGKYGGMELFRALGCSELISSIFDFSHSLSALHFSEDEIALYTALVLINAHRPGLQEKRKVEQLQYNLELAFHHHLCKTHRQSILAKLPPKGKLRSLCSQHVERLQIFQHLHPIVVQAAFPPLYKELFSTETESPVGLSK
experiment_description: RORγt binding test (TR-FRET, fluorescent-labeled cholesterol)
experimental_parameters: test compound 1 μM, histidine-tagged RORγt, read-out: binding inhibitory rate of fluorescent-labeled cholesterol to RORγt
Numbers only, in %.

| compound_structure_string | inhibition at 1 µM (%) |
| --- | --- |
| COc1ccc(-c2c(-c3nc(CC(=O)NCC4CCOCC4)cs3)cnn2C(C)(C)C)cc1 | 98.7 |
| CCCN(Cc1ccccc1)C(=O)Cc1csc(-c2cnn(C(C)(C)C)c2-c2ccc(F)cc2)n1 | 87.3 |
| CC(C)(C)n1ncc(-c2nc(CC(=O)NCC3CCOCC3)cs2)c1-c1ccc(F)cc1 | 92 |
| CC(C)(C)n1ncc(-c2nc(CC(=O)NCC3CCOCC3)cs2)c1-c1ccc(C#N)cc1 | 98.3 |
| CC(C)(C)n1ncc(-c2nc(CC(=O)NCc3ccc(-n4ccnc4)cc3)cs2)c1-c1ccc(F)cc1 | 86.5 |

List reported inhibition at 1 µM for each of these compounds:
1. CC(C)(C)n1ncc(-c2nc(CC(=O)NCC3CCOCC3)cs2)c1-c1ccccc1
2. O=C(Cc1csc(-c2cnn(C3CCCCC3)c2-c2ccc(F)cc2)n1)NCC1CCOCC1
3. CC(C)(C)n1ncc(-c2nc(CC(=O)NCc3cccnc3)cs2)c1-c1ccc(F)cc1

[94.6, 95.3, 95.4]
